Reference source: ChEMBL document CHEMBL2203123

Test system: NIH3T3
Assay procedure: Cytotoxicity against mouse NIH/3T3 cells after 24 hrs by XTT assay
Format: cell-based
Condition context: NIH3T3, 24 h
pIC50: −log10 of the molar value.
Decision: pIC50 >= 3 yields YES, all other cases yield NO.

Please review the following examples before continuing.
# Smiles, Assigned class
data = [
    ("Cn1nnnc1SCC(=O)N/N=C/c1cccc(Br)c1", "YES"),
    ("Cn1nnnc1SCC(=O)N/N=C/c1ccccc1O", "NO"),
]

// query Does the compound "Cn1nnnc1SCC(=O)N/N=C/c1cccc(F)c1" have recorded pIC50 that is 3 or more?
// result NO

// query Does the compound "C/C(=N\NC(=O)CSc1nnnn1C)c1ccc(Cl)cc1" have recorded pIC50 that is 3 or more?
// result YES

// query Does the compound "Cn1nnnc1SCC(=O)N/N=C/c1ccc(Br)cc1" have recorded pIC50 that is 3 or more?
// result NO

// query Does the compound "Cn1nnnc1SCC(=O)N/N=C/c1cccc([N+](=O)[O-])c1" have recorded pIC50 that is 3 or more?
// result NO

// query Does the compound "Cn1nnnc1SCC(=O)N/N=C/c1cccc(Cl)c1Cl" have recorded pIC50 that is 3 or more?
// result YES

---

Tested on: Salmonella typhimurium
Assay procedure: Genotoxicity against Salmonella typhimurium TA1535/pSK1002 assessed as growth factor ratio at 0.63 mg/ml by umuC assay in absence of S9 fraction
Assay type: toxicity, organism-based
Condition context: salmonella enterica subsp. enterica serovar typhimurium
Catalogue of Ratio values
# respond with the number and nothing more

Solved cases below.
# Smiles, Reported value
rows = [
    ("CN(C)c1ccc(/C=N/NC(=O)CSc2nnnn2C)cc1", 0.962),
    ("Cn1nnnc1SCC(=O)N/N=C/c1ccccc1F", 1.045),
]

In plain terms, "COc1ccc(/C=N/NC(=O)CSc2nnnn2C)cc1" has a documented Ratio of 1.028

In plain terms, "Cn1nnnc1SCC(=O)N/N=C/c1ccccc1[N+](=O)[O-]" has a documented Ratio of 1.068

In plain terms, "Cn1nnnc1SCC(=O)N/N=C/c1ccc(O)cc1" has a documented Ratio of 1.009

---

System: Salmonella typhimurium
Assay procedure: Genotoxicity against Salmonella typhimurium TA1535/pSK1002 assessed as growth factor ratio at 2.5 mg/ml by umuC assay in presence of S9 fraction
Format: toxicity, organism-based
Condition context: salmonella enterica subsp. enterica serovar typhimurium
Catalogue of Ratio values
# respond with the number and nothing more

Solved cases below.
# Smiles, Measured quantity, Reported value
data = [
    ("Cn1nnnc1SCC(=O)N/N=C/c1ccccc1F", "Ratio", 1.699),
    ("COc1ccc(/C=N/NC(=O)CSc2nnnn2C)cc1", "Ratio", 1.83),
    ("Cn1nnnc1SCC(=O)N/N=C/c1ccc(O)cc1", "Ratio", 1.663),
]

In plain terms, "CN(C)c1ccc(/C=N/NC(=O)CSc2nnnn2C)cc1" has a documented Ratio of 1.992

In plain terms, "Cn1nnnc1SCC(=O)N/N=C/c1ccccc1[N+](=O)[O-]" has a documented Ratio of 0.922

---

Test system: Salmonella typhimurium
Assay procedure: Genotoxicity against Salmonella typhimurium TA98 assessed as fold increase in revertants at 0.156 mg/ml after 90 mins by Ames MPF test in presence of S9 fraction relative to baseline
Type: toxicity, organism-based
Condition context: salmonella enterica subsp. enterica serovar typhimurium, s9, 1.5 h
Measured quantity: fold change (FC)
# respond with the number and nothing more

Solved cases below.
# Smiles, Measured quantity, Reported value
measured = [
    ("Cn1nnnc1SCC(=O)N/N=C/c1ccccc1[N+](=O)[O-]", "fold change (FC)", 1),
    ("Cn1nnnc1SCC(=O)N/N=C/c1ccc(O)cc1", "fold change (FC)", 0.32),
    ("Cn1nnnc1SCC(=O)N/N=C/c1ccccc1F", "fold change (FC)", 0.29),
    ("CN(C)c1ccc(/C=N/NC(=O)CSc2nnnn2C)cc1", "fold change (FC)", 0.86),
]

Moving on to the next compound.
In plain terms, "COc1ccc(/C=N/NC(=O)CSc2nnnn2C)cc1" has a documented fold change (FC) of 0.42
